- assay_name: yeast display, Sf9 membrane polyspecificity reagent, FACS + sequencing; frameworks hold sequencing errors
assay_endpoint: polyreactivity (PSR sort gate)

Reference set, count: 4
construct_sequence	polyreactivity (PSR sort gate)
QGQLVESGGGLVQAGGSLRLSSAASGSTHALYTMGWYRQARGKARQLVAAISKNGGRTYYADSVKGRFTISRDNAKNTVYVQMNSLKPEDTAVYYCAAASGSYRGYDYWGQGTQVTVSS	high polyreactivity
QVQLVESGGGLVQAGGSLRLSCAASGFIFPYYAMGWYRQAPGKDRELVAAISQSGGSTYYADSVKGRFTISRDYAKNTVYLQMNSLKPEDTEVYYCAKFIPSYHDGDYWGQGTQVTVSS	low polyreactivity
QVQLQESGGGLVQAGGSLRLSCAASGNIFLSIFMGWYRQAPGKEREFVAGIGSGTNTNYADSVKGRFTISRDNAKNTVYLQMNSLKAEDTAGYYSAAGRYGLYYHGYWGQGTQVTVSS	high polyreactivity
QVQLVESGGGLVQAGGSLRLSCADSGSIFFPYAMGWYRQAPGKERYLVAAISSGTSTYYADSVKGRFTISRDNAKNTVYLQMNSLKPEDTAVFYCNARHRRGRFTHDYDYWGQGTQVTVSS	low polyreactivity

Q: Suppose we examine the sequence QVQLVESGGGLVQAGGSLRLSCAASGRIFGFNTMGWYRQAPGKERELVAAITSGGSTYADSVKGRFTISRDNAKNTVYLQMNSLKPEDTAVYYCNTRFYRPLWGYNYWGQGTQVTVSS ; what polyreactivity (PSR sort gate) value has been reported?
Ans: low polyreactivity

###

- assay_name: yeast display, Sf9 membrane polyspecificity reagent, FACS + sequencing; frameworks hold sequencing errors
assay_endpoint: polyreactivity (PSR sort gate)

Solved cases (4 shown):
construct_sequence	result
QVQLVESGGGLVQAGGSLRLSCAASGSTFYQYVMGWYRQAPGKERELVAAISGSGGSTYYADSVKGRFTISRDNAKTTVYLQMNSLKPEDTAVYYCAAVGRSKRDGYWGQGTQVTVSS	high polyreactivity
QVQLVETGGGLVQAGGSLRLSCAASGFIFIHNAMGWYRQAPGKERELVAAISYSGGSTYYADSVKGRFTISRDNEKNTVYLQMNSLKPEDTAVYYCAARGALHHWYRYDDWGQGTQVTVSS	low polyreactivity
QVQLVESGGGLVQAGGSLRLSCAASGFIFYGNAMGWYRQAPGKERELVATISDGGSTNYADSVKGRFTISRDNAKNTVYFQMNSLKPEDTAVYYCATEYYTPVRGYGYWGQGTQVTVSS	low polyreactivity
QVQLVESGGGLVQAGGSLRLSCAASGFTLRRYAMGWYRLAPGKERELVATITSGGTTDYADSVKGRFTISRDNAKNTVYLQMNSLKPEDTAVYYCAAYRRGAYYYWGQGTQVTVSS	high polyreactivity

Q: Bench note: what polyreactivity (PSR sort gate) did QVQLVESGGGLVQAGGSLRLSCAASGSIFAYAMGWYRQAHGKERELVAAISGGSTYYADSVKGRFTISRENAKNTVYLQMNSLKPEETAVYYCAADLDDERYYWGQGTQVTVSS show?
Ans: low polyreactivity

###

- assay_name: yeast display, Sf9 membrane polyspecificity reagent, FACS + sequencing; frameworks hold sequencing errors
assay_endpoint: polyreactivity (PSR sort gate)

Here's what some known entries look like.
construct_sequence	polyreactivity (PSR sort gate)
QVQLVESGGGLVQAGGSLRLSCAASGITFPSYVMGWYRQAPGKEREFVAAITGSAGSTYYADSVKGRFTISRDNAKNTVYLQMNSLKPEDTAVYYCAARVRYVNPKYYYWGQGTQVTVSS	high polyreactivity
QVQLVESWGGLVQAGGSLRLSCAASGSIFPRNAMGWYRQAPGKERELVATISSGGSTYYADSVKGRFTISRDNAKNTVYLQMNSLKPEDTAVYYCAAEYVVRAIDVDYDYWGQGTQVTVSS	high polyreactivity
QVQLVESGGGLVQAGGILRLSCAASGSTFAANAMGWYRQAPGKERELVAAITSSGGSTYYADSVKGRFTISRDNAKNTVYLQMNSLKPEDTAVYYCNKDIERYVRIYYSWGQGTQVTVSS	low polyreactivity
QVQLVESGGGLGQAGASLRLICAPSGSIFLIYCMGWYRQSPGKERELVAAITARGGSTYYADSVKGSFTISRDNAKNTVYLQMNSLKPEDTSVYYCNDVGYPDVGAGTYGYWGQGTQVTVSS	low polyreactivity

Please look at the following sequence next.
Q: What value of polyreactivity (PSR sort gate) has been recorded for this entry: QVQLVESGGGLVQAGGSLRLSCAASGSTFYDYAMGWYRQAPGKERELVAAISRSGGSTYYADSVKGRFTISRDNAKNTVYLQRNSLKPEDTAVYYCAASRATLLRYGYWGQGTQVTVSS
Ans: low polyreactivity

###

- assay_name: yeast display, Sf9 membrane polyspecificity reagent, FACS + sequencing; frameworks hold sequencing errors
assay_endpoint: polyreactivity (PSR sort gate)

construct_sequence	result
QDHHVESGGGLVQAGGSLRLICAASGSTFSWNTMGWYRPAPGKERDLVAAISWSTGRTYYADSVKGRFTISRDNAKNTVYLQMISLKPEDTAVYYCAARRFVTDGTRREYDYWGQGTQVTVSS	high polyreactivity
QVQLVESGGGLVQAGGSLRLSCAASGSTFSTYAMGWYRQAPGKERELVATISKRGGSTYYADSVKGRFTISRDNAKNTVYLQMNSLKAEDTAVYYCDARWQWLNGYYYWGQGTQVSVSS	high polyreactivity

###

- assay_name: yeast display, Sf9 membrane polyspecificity reagent, FACS + sequencing; frameworks hold sequencing errors
assay_endpoint: polyreactivity (PSR sort gate)

construct_sequence	result
QDQLVESGGGLVQAGGSLRLSCAASGSNFSWNDMGWYRQAPGKERELVAAITSDDTSTYYADSVKGRFTISRDNAKNSVYLQMNSLKPEDTAVYYCAADYGNPFDYWGQGTQVTVSS	low polyreactivity
QVQLVESGGGLVQAGGSLRLSCAASGRTFRYNALGWYRQAPGTERELVAAISRGTITNYAASVKGRFTISRDNAKNPVYFQLTSLKPEDTAVYYCNAGWGVVIRRYPTYHYWGQGTQVTVSS	high polyreactivity
QVQLVESGGGLVQARGSLRLSCAASGRIFSKYAMGWYRQAPGKERELVAAISSSGVSTYYADSVKGRFTISRDNAKNTVYLQMNSLKPEDTAVYYCYKRTSPKRFDYWGQGTQVTVSS	high polyreactivity
QVQLVESGGGLVQAGGSLRLSCAASGRIFSNNAMGWYRQAPGKERELVAAISSSGSTYYADSVKGRFTISRDNAKNTVYLQMNSLKPEDTAVYYCAVVYGYPYLRGYVYGFNYWGQGTQVTVSS	low polyreactivity

Next sequence, please.
Q: So what's the measured polyreactivity (PSR sort gate) for this one? QVQLVESGGGLVQAGGSLRLSCAASGIIFATYAMGWYRQAPGKERELVASISTGDSTNYADSVKGRFTISRDNAKTTVYLQMNSLKPEDTAVYYCNADSYPYYVYGSNDYWGQGTQVTVSS
Ans: low polyreactivity

###

- assay_name: yeast display, Sf9 membrane polyspecificity reagent, FACS + sequencing; frameworks hold sequencing errors
assay_endpoint: polyreactivity (PSR sort gate)

These solved cases illustrate the format of a correct answer.
construct_sequence	result
QVQLVESGGGLVQAGGSLRLSCAASGFIFRSYVMGWYRQSPGKERELVAAISKSGGSTYYADSVKGRFTISRDNAKTTVYLQMNSLKPEDTAVYYCAAGTTRTGYRTRYDYWGQGTQVTVSS	high polyreactivity
QVQLVESGGGLVQAGGSLRLSCAASGRTFYYNAMGWDRQAPGKESELVARITYRSGRTNYADSVKGRFTISRDNAKNTVYLQMNSLKPEDTAVYYCAAAWWCGAGRTRYEYWGQGTQVTVSS	high polyreactivity
QVQLLESGVGLVQAGGSLRLSCAASGTIFVDYAMGWYRQAPGKERQLVAAITSVGRTNYADSVKGRFTISRDNAKNTVYLQMNSLKPEDTAVYYCNKTRYTNYYTTTFDYWGQGTQVTVSS	low polyreactivity
QVQLVESGGGLVQAGGSLRLSCAASGYTFYSNAMGWYRQAPGKETELVASIRSRGRSTYYADSVKGRFTISRDNAKNTVYLQMNSLKPEDTAVYYCAALPNKPAVYAYDYWGQGTQVTVSS	low polyreactivity
QVQLVESGGGLVQAGGSHRLSCAASGLTFRRNAMGWYRQAPGKERELVAAISGSGGSTYYADSVKGRFTISRDNAKNTVYLQMNSLKPEDTAVYYCAADDGIVAYGYWGQGTQVTVSS	high polyreactivity
QVQLVESGGGLLHAGGSLRLSCAASGRIFWFYTMGWYRQAPGKERELVAAISDSAGSTYYADSVKGRFTISRDNAKYTVYVPMNSLKPEDTAVYYCDADGWWQYDYWGHGTQVTVSS	low polyreactivity
QVQLVESGGGLVQAGGSLRLSCAASGRIRRYTMGWYRQAPGKVRELVASISGNGGSTYYADSVKGRFTISRDNAKNTVYLQMNSLKPEDTAVYYCARTKQEYTFGQFYLGDYWGQGTQVTVSS	low polyreactivity
HVQLVESGGGLFQAGGRLRVSCAASGNTIWGNAMGGSRQAPGKEREVVAAITGGGDTNYADSVKGRFTISRDNAKNTVYLQMNSLKPEDTAVYYCAADSSEWLLKDDYWGQGTQVTVSS	low polyreactivity
QDQLVESGGGLVQAGGRLRLSCAASGSTFLRYAMGWYRQAPGKERELVAAINLSGDRTYYADSVKGRFTISRDKAKNTFYLQMHSLKPEDTAVYYCAARWWGPSYDAYDYWGQGTQVTVSS	low polyreactivity
QVQLVESGGGLVQAGGSLRLSCAASGFTFFRYAMGWYRQAPGKERELVATITSGGTTNYADSVKGRFTISRDNAKNTVYLQMNSLKPEDTAVYYCAARTYPSYYVTFEYWGQGTQVTVSS	low polyreactivity

Q: // returns reported polyreactivity (PSR sort gate) for input QVQLVESGGGLVQAGGSLRLSCAASGYTFQTYAMGCYRQAPGKERELVAAITRSGTRTYYADSVKGRFTISRDNAKNTVYLQMYSLKPEDTAVYYCAAETYYSIYDYWGQGTQVTVSS
Ans: high polyreactivity
